Molecular target: UniProt:Q9H5I1
Sequence (Q9H5I1 whole entry): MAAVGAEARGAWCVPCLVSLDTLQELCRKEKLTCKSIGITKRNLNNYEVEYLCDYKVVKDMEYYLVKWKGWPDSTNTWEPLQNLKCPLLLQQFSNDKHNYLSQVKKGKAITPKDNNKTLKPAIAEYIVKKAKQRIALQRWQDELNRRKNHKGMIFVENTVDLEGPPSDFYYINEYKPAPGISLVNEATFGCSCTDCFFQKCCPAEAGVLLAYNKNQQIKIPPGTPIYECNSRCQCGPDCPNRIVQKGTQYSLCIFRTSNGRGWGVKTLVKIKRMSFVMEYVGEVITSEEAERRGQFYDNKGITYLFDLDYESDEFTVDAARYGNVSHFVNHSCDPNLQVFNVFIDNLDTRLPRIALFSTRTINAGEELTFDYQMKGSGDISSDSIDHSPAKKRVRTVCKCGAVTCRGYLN
Conditions: read-out: IC50 (μM) Suv 39H2 assay
Where a name gives a salt, the structure may show the parent alone.
Note to self: IC50 under 0.03 µM means Condition met, ties and anything higher get Condition not met.

COc1cc(OC)c(-c2cn3ccc(N4CC[C@H](N)C4)cc3n2)cc1Cl [Example 47, hydrochloride]; Condition met
COc1cc(OC)c(-c2cn3ccc(N4CCC(N)CC4)nc3n2)cc1Cl [Example 42, hydrochloride]; Condition not met
COc1cc(OC)c(-c2cn3ccc(N4CC[C@@H](N)C4)nc3n2)cc1Cl [Example 55, hydrochloride]; Condition met
COc1cc(OC)c(-c2cn3cc(N4CCNCC4)ccc3n2)cc1Cl [Example 115, hydrochloride]; Condition met

Query: Item COc1cc(OC)c(-c2cn3ccc(N4CCCC4)nc3n2)cc1C#N [Example 69, hydrochloride] : IC50 beneath 0.03 µM, strictly?
Result: Condition met
